// data source = patent US5434246A

- EXPERIMENTAL SYSTEM: PTH receptor (Mus musculus)
- Construct: a mouse cranial bone-derived osteoblast-like cell strain, MC3T3-EI cells; endogenous in cells; host or cells: MC3T3-E1 mouse osteoblast-like cells
- Sequence (P41593 27-591): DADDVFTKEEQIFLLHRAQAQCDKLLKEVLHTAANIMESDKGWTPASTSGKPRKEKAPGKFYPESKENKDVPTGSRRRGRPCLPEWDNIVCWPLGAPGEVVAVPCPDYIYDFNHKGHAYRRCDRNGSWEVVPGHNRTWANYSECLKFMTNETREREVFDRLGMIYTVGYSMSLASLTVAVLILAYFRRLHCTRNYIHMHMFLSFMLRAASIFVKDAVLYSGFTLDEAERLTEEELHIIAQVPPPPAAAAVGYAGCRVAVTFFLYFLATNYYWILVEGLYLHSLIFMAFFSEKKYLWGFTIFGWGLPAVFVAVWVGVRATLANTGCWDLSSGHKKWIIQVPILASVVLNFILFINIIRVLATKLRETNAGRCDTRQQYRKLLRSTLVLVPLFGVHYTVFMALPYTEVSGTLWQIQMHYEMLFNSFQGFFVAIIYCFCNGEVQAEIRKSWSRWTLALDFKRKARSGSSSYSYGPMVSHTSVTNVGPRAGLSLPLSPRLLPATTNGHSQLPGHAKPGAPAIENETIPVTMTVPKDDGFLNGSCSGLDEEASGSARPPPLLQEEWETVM
- EXPERIMENTAL PROTOCOL: cAMP production in MC3T3-EI osteoblast-like cells (biological activity of PTH(1-34) derivatives)
- Type: cell-based
- MEASUREMENT CONDITIONS: 0.01-100 nM derivative, room temperature 30 minutes, hPTH(1-34) standard = 1.00
Ends that are not written are not given here.
METRIC NAME: Biological Activity, Represented by Relative Activity to hPTH(1-34)

SVSEIQLMHNLGKHLNSMERVEWLRQQLQDVHNF [[Gln^26,27]hPTH(1-34)]	1.19

[P] SVSEIQLMHNLGKHLNSMERVEWLRRRLQDVHNF [[Arg^26,27]hPTH (1-34), [Arg^26,27]hPTH(1-34)]
[Q] SVSEIQLMHNLGKHLKKMERVEWLRKKLQDVHNF [[Lys^16,17]hPTH(1-34)]
Query: Pick one: P or Q . Which one has the lower reported Biological Activity, Represented by Relative Activity to hPTH(1-34)? Give the label of your selection.
Response: P
(P: 0.98, Q: 8.85)

* * *

- EXPERIMENTAL SYSTEM: PTH receptor (Mus musculus)
- Construct: a mouse cranial bone-derived osteoblast-like cell strain, MC3T3-EI cells; endogenous in cells; host or cells: MC3T3-E1 mouse osteoblast-like cells
- EXPERIMENTAL PROTOCOL: cAMP production in MC3T3-EI osteoblast-like cells (biological activity of PTH(1-34) derivatives)
- Assay type: cell-based
- MEASUREMENT CONDITIONS: 0.01-100 nM derivative, room temperature 30 minutes, hPTH(1-34) standard = 1.00
Ends that are not written are not given here.
METRIC NAME: Biological Activity, Represented by Relative Activity to hPTH(1-34)

Take a look at these entries with their results.
SVSEIQLMHNLGKHKKKMERVEWLRKKLQDVHNF [[Lys^15,16,17]hPTH (1-34), [Lys^15,16,17]hPTH(1-34)]	7.62
SVSEIQLMHNLGKHKKSMERVEWLRKHLQDVHNF [[Lys^15,16,His^27]hPTH(1-34)]	1.49
SVSEIQLMHNLGKHLNSMERVEWLQQQLQDVHNF [[Gln^25,26,27]hPTH (1-34), [Gln^25,26,27]hPTH(1-34)]	0.41
SVSEIQLMHNLGKHLRSMERVEWLRKQLQDVHNF [[Arg^16,Gln^27]hPTH(1-34)]	2.16
SVSEIQLMHNLGKHKKKMERVEWLRKHLQDVHNF [[Lys^15,16,17,His^27]hPTH (1-34), [Lys^15,16,17,His^27]hPTH(1-34)]	7.47

[A] SVSEIQLMHNLGKHLKDMERVEWLRKKLQDVHNF [[Lys^16,Asp^17]hPTH(I-34), [Lys^16 Asp^17]hPTH(1-3)]
[B] SVSEIQLMHNLGKKKKKMERVEWLRKKLQDVHNF [[Lys^14,15,16,17]hPTH (1-34), [Lys^14,15,16,17]hPTH(1-34)]
Query: Determine, for A and B , which has the greater value of Biological Activity, Represented by Relative Activity to hPTH(1-34). // return label of chosen record
Response: B
(B: 6.39, A: 1.24)
